tested on: TNFα; test: cells; assay type: cell-based, human; settings: Homo sapiens, Monocyte, LPS-stimulated human monocytes, TNFα by TR-FRET; read-out: EC50 TNF
Endpoint name: pEC50
Scale note: pEC50 = -log10(concentration in M).

Please review the following examples before continuing.
- Molecule: "N#Cc1cnn2c(-c3cc(NC45CCC(O)(CC4)CC5)c(C(=O)NCC(=O)N4CC5(COC5)C4)cn3)ccc2c1"
  Target: "TNFα"
  pEC50: 6.88
- Molecule: "CC(C)(O)[C@H](F)CNC(=O)c1cnc(-c2ccc3cc(C#N)cnn23)cc1Nc1cnc2c(c1)OCCN2"
  Target: "TNFα"
  pEC50: 8.05
- Molecule: "Cn1cc(CNC(=O)c2cnc(-c3ccc4cc(C#N)cnn34)cc2NC23CCC(O)(CC2)CC3)cn1"
  Target: "TNFα"
  pEC50: 6.72
- Molecule: "CC(C)(O)[C@H](F)CNC(=O)c1cnc(-c2ccc3cc(C#N)cnn23)cc1NC1CC2(C1)CN(CC(F)(F)F)C2"
  Target: "TNFα"
  pEC50: 6.93
- Molecule: "N#Cc1cnn2c(-c3cc(NC45CCC(O)(CC4)CC5)c(C(=O)NCC(=O)N4CCC(F)(F)C4)cn3)ccc2c1"
  Target: "TNFα"
  pEC50: 7.38

stdin: Query: pEC50; subject: Cn1ccnc1CNC(=O)c1cnc(-c2ccc3cc(C#N)cnn23)cc1NC12CCC(O)(CC1)CC2
stdout: 7.15

stdin: # query: pEC50 of entry CC(C)(O)[C@H](F)CNC(=O)c1cnc(-c2ccc3cc(C#N)cnn23)cc1NCC1CN(CC(F)(F)F)C1
stdout: 7.04

* * *

target: IRAK4 enzyme (Homo sapiens (Human), UniProt Q9NWZ3); assay: biochemical; type: biochemical; conditions: IRAK4 enzyme, TR-FRET, 500 μM ATP
Sequence (Q9NWZ3 whole entry): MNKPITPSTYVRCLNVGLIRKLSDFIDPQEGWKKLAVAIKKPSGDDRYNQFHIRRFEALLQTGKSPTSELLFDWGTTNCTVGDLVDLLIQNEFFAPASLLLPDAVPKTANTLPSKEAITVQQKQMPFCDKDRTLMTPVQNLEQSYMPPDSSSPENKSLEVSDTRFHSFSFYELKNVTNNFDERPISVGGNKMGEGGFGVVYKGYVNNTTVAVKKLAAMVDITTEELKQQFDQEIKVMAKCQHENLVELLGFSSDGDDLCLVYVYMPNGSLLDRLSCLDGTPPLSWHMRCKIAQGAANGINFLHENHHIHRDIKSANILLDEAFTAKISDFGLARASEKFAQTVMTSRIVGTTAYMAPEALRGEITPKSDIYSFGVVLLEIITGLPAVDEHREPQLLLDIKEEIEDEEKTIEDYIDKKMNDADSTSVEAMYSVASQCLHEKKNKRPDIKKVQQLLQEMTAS
Endpoint name: log10 IC50 (log10 of the value in nM)
Scale: decimal log of IC50, IC50 in nM.

- Molecule: "CC(C)(O)[C@H](F)CNC(=O)c1cnc(-c2ccc3cc(C#N)cnn23)cc1Nc1ccn(Cc2ccccc2)n1 [Example 370]"
  log10 IC50: 0.00

We next turn to a different molecule, shown below.
stdin: Lab request: please report log10 IC50 under test system IRAK4 enzyme (Homo sapiens (Human), UniProt Q9NWZ3) for CC(C)Nc1cc(-c2ccc3cc(C(N)=O)cnn23)ncc1C(=O)NC1CS(=O)(=O)C1 [Example 78]
stdout: 1.43

* * *

test system: TNFα; assay: cells; format: cell-based, human; conditions: Homo sapiens, Monocyte, LPS-stimulated human monocytes, TNFα by TR-FRET; read-out: EC50 TNF
Known pEC50 of a selection of molecules
Remember, pEC50 is on a log scale: it is -log10 of the molar concentration.

stdin: // fetch TNFα pEC50 for CCOc1cccc(Nc2cc(-c3ccc4cc(C#N)cnn34)ncc2C(=O)NC[C@@H](F)C(C)(C)O)c1
stdout: 7.37

stdin: What reported pEC50 corresponds to N#Cc1cnn2c(-c3cc(Nc4cnc5c(c4)OCCO5)c(C(=O)N[C@H]4CC[C@H](NC(=O)C5CC5)CC4)cn3)ccc2c1 on TNFα?
stdout: 7.70

stdin: Give TNFα pEC50 for CN1CCN(C(=O)[C@H](F)CNC(=O)c2cnc(-c3ccc4cc(C#N)cnn34)cc2NC23CCC(O)(CC2)CC3)CC1
stdout: 6.55

stdin: Notebook entry, TNFα assay: pEC50 of CC(C)Nc1cc(-c2ccc3cc(C#N)cnn23)ncc1C(=O)NCC(=O)N1CC(F)(F)C1 = ?
stdout: 7.12

The measurements presented in this section are drawn from patent US10336762B2.
